Read-out: Matrix Metallopeptidase 9 (MMP9), MMP9 (gene 4318)
Assay: BSK_KF3CT_MMP9: BioMAP Diversity Plus: KF3CT Assay for Matrix Metallopeptidase 9 (MMP9) Biomarker Activity (AID 2283074);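 as to AC50: MMP9 protein level quantified by ELISA in the co-culture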
Details: primary human keratinocytes with fibroblasts; actives raise or lower the signal
Protocol: BSK_KF3CT is a cell-based, multiplexed-readout assay that uses keratinocytes and foreskin fibroblasts, a human skin primary cell co-culture, with measurements taken at 24 hours after chemical dosing in a 96-well plate.BSK_KF3CT_MMP9 is an assay component measured in the BSK_KF3CT assay. It measures MMP-9 antibody related to regulation of gene expression using ELISA technology.Data from the assay component BSK_KF3CT_MMP9 was analyzed into 1 assay endpoint. […]
Active and inactive are the calls of the source. The calls were made as follows: active = hit-call score of the fitted dose curve at least 0.9, where 1 is the maximum; inactive = score below 0.9.

{"columns": ["compound", "AC50"],
 "data": [
  ["O=c1n(Cl)c(=O)n(Cl)c(=O)n1Cl", "inactive"],
  ["O=P(O)(O)CCCl", "inactive"],
  ["CS(=O)(=O)c1ccc(C(=O)C2C(=O)CCCC2=O)c([N+](=O)[O-])c1", "inactive"],
  ["N#CN=C1SCCN1Cc1ccc(Cl)nc1", "inactive"],
  ["COC(=O)N(C(=O)N1CO[C@@]2(C(=O)OC)Cc3cc(Cl)ccc3C2=N1)c1ccc(OC(F)(F)F)cc1", "3.16 µM (active)"],
  ["CCOc1cc(C(C)(C)C)ccc1C1COC(c2c(F)cccc2F)=N1 (stereo not given)", "14.8 µM (active)"],
  ["O=C(O)c1c(Cl)ccc2cc(Cl)cnc12", "inactive"],
  ["CC1(C)CCC(=Cc2ccc(Cl)cc2)C1(O)Cn1cncn1 (stereo not given)", "inactive"],
  ["CC(C)N1C(=O)N(c2ccccc2)CSC1=NC(C)(C)C", "31.6 µM (active)"],
  ["CC(C)(C)C(=O)C(Oc1ccc(Cl)cc1)n1cncn1 (stereo not given)", "inactive"],
  ["CCOc1nc(F)cc2nc(S(=O)(=O)Nc3c(Cl)cccc3Cl)nn12", "inactive"],
  ["CCCCC(C#N)(Cn1cncn1)c1ccc(Cl)cc1 (stereo not given)", "inactive"],
  ["CCN(CC)c1nc(C)cc(OP(=S)(OC)OC)n1", "inactive"],
  ["CO/N=C(/C1=NOCCO1)c1ccccc1Oc1ncnc(Oc2ccccc2Cl)c1F", "30.6 µM (active)"],
  ["CN/C(=N\\[N+](=O)[O-])NCc1cnc(Cl)s1", "inactive"],
  ["Cn1c(-c2ccccc2)cc(-c2ccccc2)[n+]1C", "inactive"],
  ["CC(C)Nc1nc(Cl)nc(NC(C)C)n1", "inactive"],
  ["COP(=S)(OC)SCn1nnc2ccccc2c1=O", "inactive"],
  ["COP(=O)(OC)O/C(C)=C/C(=O)N(C)C", "inactive"],
  ["N#Cc1c(Cl)cccc1Cl", "inactive"],
  ["CC1(C)C(C=C(Cl)Cl)C1C(=O)OC(C#N)c1cccc(Oc2ccccc2)c1 (stereo not given)", "inactive"],
  ["CCCCC(O)(Cn1cncn1)c1ccc(Cl)cc1Cl (stereo not given)", "inactive"],
  ["COC(=O)NS(=O)(=O)c1ccc(N)cc1", "inactive"],
  ["C=CCOC(=O)C(C)(C)OC(=O)c1cc(-n2c(=O)cc(C(F)(F)F)n(C)c2=O)ccc1Cl", "inactive"],
  ["CNC(=O)Oc1cccc2ccccc12", "inactive"]
]}
